- Read-out: Caspase-3 (Homo sapiens)
- Measurement protocol: LTEA_HepaRG_CASP3: Life Technologies and Expression Analysis (LTEA) Assay for cysteine-aspartic acid protease (CASP3) using HepaRG (AID 2283477)
- Assay context: mRNA level, 48 h; actives raise or lower the signal
The source made the active and inactive calls. How the source made its calls: active means hit-call score of the fitted dose curve at least 0.9, where 1 is the maximum; inactive means score below 0.9.
Outcome field: choose from True = active, False = inactive

Lookup: Lab log entry: CNC(=O)CSP(=S)(OC)OC — outcome as called in the assay?
Found: False

Lookup: Again, but for CC1(C)C(C=C(Cl)Cl)C1C(=O)OC(C#N)c1ccc(F)c(Oc2ccccc2)c1 (configuration not stated)
Found: False

Lookup: Try this compound next: Oc1ccc(Cl)cc1Cc1ccccc1
Found: False

Lookup: Now try CC(C)OC(=O)Nc1cccc(Cl)c1 .
Found: False

Lookup: And for COP(=O)(OC)OC=C(Cl)Cl ?
Found: False

Lookup: Now the same for C[C@H]1[C@H](c2ccc(Cl)cc2)SC(=O)N1C(=O)NC1CCCCC1
Found: False

Lookup: Proceed to CCC(C)(NC(=O)c1cc(Cl)c(C)c(Cl)c1)C(=O)CCl (configuration not stated)
Found: True

Lookup: Please do the same for CCC(C)Nc1c([N+](=O)[O-])cc(C(C)(C)C)cc1[N+](=O)[O-] (configuration not stated) as well.
Found: False

Lookup: Record: ClC1C(Cl)C(Cl)C(Cl)C(Cl)C1Cl (configuration not stated)
Found: False

Lookup: Note, next up: CC1(c2ccc(Oc3ccccc3)cc2)OC(=O)N(Nc2ccccc2)C1=O (configuration not stated)
Found: False

Lookup: What do we get for COP(=S)(OC)Oc1ccc(SC)c(C)c1 ?
Found: False

Lookup: Note, next up: CCCN(CCC)c1c([N+](=O)[O-])cc(C(F)(F)F)cc1[N+](=O)[O-]
Found: False
